- TEST_TARGET: c-MET (Homo sapiens, UniProt P08581)
- Sequence (P08581 25-1390): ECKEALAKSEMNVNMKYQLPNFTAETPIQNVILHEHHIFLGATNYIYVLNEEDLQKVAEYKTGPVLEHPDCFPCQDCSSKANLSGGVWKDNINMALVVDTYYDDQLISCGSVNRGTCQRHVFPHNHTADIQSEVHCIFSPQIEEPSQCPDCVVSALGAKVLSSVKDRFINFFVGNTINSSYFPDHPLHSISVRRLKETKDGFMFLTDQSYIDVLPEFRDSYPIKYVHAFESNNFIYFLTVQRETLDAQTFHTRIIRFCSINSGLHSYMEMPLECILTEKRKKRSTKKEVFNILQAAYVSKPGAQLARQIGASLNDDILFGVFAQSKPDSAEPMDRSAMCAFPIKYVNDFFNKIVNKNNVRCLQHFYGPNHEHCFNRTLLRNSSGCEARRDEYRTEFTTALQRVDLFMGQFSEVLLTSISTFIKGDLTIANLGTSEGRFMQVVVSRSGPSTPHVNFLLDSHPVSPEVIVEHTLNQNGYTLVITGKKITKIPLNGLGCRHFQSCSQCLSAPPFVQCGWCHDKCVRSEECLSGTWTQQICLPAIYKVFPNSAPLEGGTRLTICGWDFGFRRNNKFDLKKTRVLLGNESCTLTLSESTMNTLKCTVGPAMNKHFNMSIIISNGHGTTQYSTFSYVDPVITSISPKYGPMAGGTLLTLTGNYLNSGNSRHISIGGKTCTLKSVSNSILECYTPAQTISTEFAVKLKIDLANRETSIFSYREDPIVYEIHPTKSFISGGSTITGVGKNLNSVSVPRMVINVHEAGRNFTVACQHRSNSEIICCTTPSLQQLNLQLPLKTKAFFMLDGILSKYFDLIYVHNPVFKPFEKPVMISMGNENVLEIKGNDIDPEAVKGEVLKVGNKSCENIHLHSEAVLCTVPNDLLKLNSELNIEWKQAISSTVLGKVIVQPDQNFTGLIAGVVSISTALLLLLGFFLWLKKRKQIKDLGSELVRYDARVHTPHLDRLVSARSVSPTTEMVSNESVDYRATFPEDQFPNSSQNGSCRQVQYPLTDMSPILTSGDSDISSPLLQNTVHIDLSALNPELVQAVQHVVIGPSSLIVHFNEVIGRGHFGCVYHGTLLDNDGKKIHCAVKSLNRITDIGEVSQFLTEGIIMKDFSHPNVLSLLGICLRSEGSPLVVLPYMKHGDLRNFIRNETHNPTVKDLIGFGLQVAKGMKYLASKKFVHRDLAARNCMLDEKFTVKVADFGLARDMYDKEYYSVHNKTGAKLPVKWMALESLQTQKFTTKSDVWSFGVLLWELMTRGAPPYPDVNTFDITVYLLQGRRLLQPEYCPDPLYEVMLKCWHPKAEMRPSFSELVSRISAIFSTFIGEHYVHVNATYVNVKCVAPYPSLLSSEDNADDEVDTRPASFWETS
pKi: −log10 of the molar value.
MEASURE: pKi

Prompt line: Which measured pKi belongs to `Nc1ncc(-c2cccc(NC(=O)NC3CCCC3)c2)cc1-c1nnnn1-c1cccc(F)c1F` , tested on c-MET (Homo sapiens, UniProt P08581)?
Response line: ≥ 7.00

Prompt line: Which measured pKi belongs to `CNCc1ccc(-c2cnc(N)c(-c3nnnn3-c3cccc(F)c3F)c2)cc1` , tested on c-MET (Homo sapiens, UniProt P08581)?
Response line: ≥ 7.00

====

Each entry below lists one item and its recorded Ki value.
- TEST_TARGET: UniProt P08581

MOLECULE | Ki
COc1ccncc1-c1cnc(N)c(-c2nncn2-c2cccc(F)c2F)c1 | 100 to 1000 nM
CN1CCC(n2cc(-c3cnc(N)c(-c4nnnn4-c4cccc(Cl)c4F)c3)cn2)CC1 | ≤ 100 nM
COC(=O)Nc1ccc(-c2cnc(N)c(-c3nnnn3-c3cccc(F)c3F)c2)cc1 | 100 to 1000 nM

Prompt line: Which measured Ki belongs to `CC(=O)Nc1cccc(-c2cnc(N)c(-c3nnnn3-c3cc(Cl)ccc3F)c2)c1` , tested on UniProt P08581?
Response line: 100 to 1000 nM

Prompt line: Which measured Ki belongs to `Nc1ncc(-c2ccnc(F)c2)cc1-c1nnnn1-c1cccc(F)c1F` , tested on UniProt P08581?
Response line: 100 to 1000 nM

Prompt line: Which measured Ki belongs to `Nc1ncc(-c2ccccc2)cc1-c1nnnn1-c1cccc(F)c1F` , tested on UniProt P08581?
Response line: ≤ 100 nM

Prompt line: Which measured Ki belongs to `CN1CCN(c2ccc(-c3cnc(N)c(-c4nccn4-c4cccc(Cl)c4Cl)c3)cc2)CC1` , tested on UniProt P08581?
Response line: 100 to 1000 nM

Prompt line: Which measured Ki belongs to `Cc1nn(C2CCNCC2)c(C)c1-c1cnc(N)c(-c2nnnn2-c2cccc(F)c2F)c1` , tested on UniProt P08581?
Response line: 100 to 1000 nM

Prompt line: Which measured Ki belongs to `CN(C)C(=O)N1CCC(n2cc(-c3cnc(N)c(-c4nnnn4-c4cccc(Cl)c4F)c3)cn2)CC1` , tested on UniProt P08581?
Response line: ≤ 100 nM

Prompt line: Which measured Ki belongs to `Nc1ncc(-c2cccnc2)cc1-c1ncsc1-c1cccc(Cl)c1Cl` , tested on UniProt P08581?
Response line: 100 to 1000 nM

Prompt line: Which measured Ki belongs to `Nc1ncc(-c2cnn(C3CCN(C(=O)C(F)(F)F)CC3)c2)cc1-c1nnnn1-c1cccc(F)c1Cl` , tested on UniProt P08581?
Response line: 100 to 1000 nM

Prompt line: Which measured Ki belongs to `CN(C)Cc1ccc(-c2cnc(N)c(-c3nnnn3-c3cc(F)cc(F)c3)c2)cc1` , tested on UniProt P08581?
Response line: 100 to 1000 nM

Prompt line: Which measured Ki belongs to `Nc1ncc(-c2cccc(NC(=O)Nc3cccs3)c2)cc1-c1nnnn1-c1cccc(F)c1F` , tested on UniProt P08581?
Response line: 100 to 1000 nM

Prompt line: Which measured Ki belongs to `CNc1ccc(-c2cnc(N)c(-c3nnnn3-c3cccc(F)c3F)c2)cc1C#N` , tested on UniProt P08581?
Response line: ≤ 100 nM

Prompt line: Which measured Ki belongs to `CN(C)Cc1ccc(-c2cnc(N)c(-c3nnnn3-c3cccc(F)c3F)c2)cc1F` , tested on UniProt P08581?
Response line: ≤ 100 nM

Prompt line: Which measured Ki belongs to CC1CCC(C)N1Cc1ccc(-c2cnc(N)c(-c3nnnn3-c3cccc(F)c3F)c2)cc1 (centres unmarked) , tested on UniProt P08581?
Response line: ≤ 100 nM

Prompt line: Which measured Ki belongs to `CC(=O)Nc1ccc(-c2cnc(N)c(-c3nnnn3-c3c(F)cccc3F)c2)cc1` , tested on UniProt P08581?
Response line: 100 to 1000 nM

Prompt line: Which measured Ki belongs to `CCN(C)Cc1ccc(-c2cnc(N)c(-c3nnnn3-c3cccc(F)c3F)c2)cc1` , tested on UniProt P08581?
Response line: ≤ 100 nM

Prompt line: Which measured Ki belongs to `Nc1ncc(-c2cnn(C3CCNCC3)c2)cc1-c1nnnn1-c1cccc(F)c1F` , tested on UniProt P08581?
Response line: ≤ 100 nM

Prompt line: Which measured Ki belongs to `CN1C[C@@H]2C[C@H]1CN2c1ccc(-c2cnc(N)c(-c3nncn3-c3cccc(F)c3F)n2)cc1` , tested on UniProt P08581?
Response line: ≤ 100 nM

Prompt line: Which measured Ki belongs to `CC(=O)Nc1ccc(-c2cnc(N)c(-c3nnnn3-c3cccc(Cl)c3F)c2)cc1` , tested on UniProt P08581?
Response line: ≤ 100 nM

Prompt line: Which measured Ki belongs to `Nc1ncc(-c2ccc(C3CCNCC3)s2)cc1-c1nnnn1-c1cccc(Cl)c1F` , tested on UniProt P08581?
Response line: ≤ 100 nM

Prompt line: Which measured Ki belongs to `CC(=O)Nc1ccc(-c2cnc(N)c(-c3nnnn3-c3cccc(F)c3F)c2)s1` , tested on UniProt P08581?
Response line: ≤ 100 nM

Prompt line: Which measured Ki belongs to `Nc1ncc(-c2ccccc2Cl)cc1-c1nnnn1-c1cccc(F)c1F` , tested on UniProt P08581?
Response line: 100 to 1000 nM

Prompt line: Which measured Ki belongs to `Nc1ncc(-c2ccn[nH]2)cc1-c1nnnn1-c1cccc(F)c1F` , tested on UniProt P08581?
Response line: 100 to 1000 nM

Prompt line: Which measured Ki belongs to `CN(C)CCn1cc(-c2cnc(N)c(-c3nc4cnccc4n3-c3cccc(F)c3F)c2)cn1` , tested on UniProt P08581?
Response line: ≤ 100 nM

Prompt line: Which measured Ki belongs to `Nc1ncc(-c2ccc(CN3CCN(Cc4ccncc4)CC3)cc2)cc1-c1nnnn1-c1cccc(Cl)c1Cl` , tested on UniProt P08581?
Response line: 100 to 1000 nM

Prompt line: Which measured Ki belongs to `Nc1ncc(-c2ccc(N3CCCC3=O)cc2)cc1-c1nnnn1-c1cccc(F)c1F` , tested on UniProt P08581?
Response line: ≤ 100 nM
